Tested on: non-senescent control IMR90 ER:RAS cells
Experiment: Nuclei count (Hoechst, high content imaging) senolytic assay, OIS model, non-senescent control cells
Assay type: cell-based, human
Conditions: Homo sapiens, IMR-90, 72 h, Control, log (dose) [M] -7.66, 72 h, mean n=3 (Fig 3C); read-out: Mean % Cell Survival
reported-endpoint: viability at 0.02188 µM (%)
Write down the numeric answer in % and omit the unit.

[
  {
    "molecule": "CO[C@H]1C[C@@H]2CC[C@@H](C)[C@@](O)(O2)C(=O)C(=O)N2CCCC[C@H]2C(=O)O[C@H]([C@H](C)C[C@@H]2CC[C@@H](O)[C@H](OC)C2)CC(=O)[C@H](C)/C=C(\\C)[C@@H](O)[C@@H](OC)C(=O)[C@H](C)C[C@H](C)/C=C/C=C/C=C/1C [Rapamycin, rapamycin, reference compound]",
    "system": "non-senescent control IMR90 ER:RAS cells",
    "readout-units": "%",
    "viability at 0.02188 µM": 95.8
  }
]

Enquiry: # query: viability at 0.02188 µM of entry C[C@@H]1O[C@@H](O[C@H]2C[C@@H](O)[C@]3(CO)[C@H]4[C@H](O)C[C@]5(C)[C@@H](C6=CC(=O)OC6)CC[C@]5(O)[C@@H]4CC[C@]3(O)C2)[C@H](O)[C@H](O)[C@H]1O [Ouabain, ouabain, reference compound]
Return: 87.3

----------
Test system: senescent IMR90 ER:RAS cells (4-OHT-induced)
Experiment: Nuclei count (Hoechst, high content imaging) senolytic assay, oncogene-induced senescence (OIS) model, senescent cells
Assay type: cell-based, human
Settings: Homo sapiens, IMR-90, 72 h, Senescent, log (dose) [M] -6.66, 72 h, mean n=3 (Fig 3C); read-out: Mean % Cell Survival
Counter-ions that a name gives are not always drawn.
Returns: string. Value is y if measured viability at 0.2188 µM is below 90%, and n if it is greater than or equal to it.

Example results:
[
  {
    "molecule": "O=c1cc(-c2ccc(O)cc2)oc2cc(O)c(O)c(O)c12",
    "class-label": "n"
  },
  {
    "molecule": "Cc1cc2c(C(C)C)c(O)c(O)c(C=O)c2c(O)c1-c1c(C)cc2c(C(C)C)c(O)c(O)c(C=O)c2c1O",
    "class-label": "n"
  },
  {
    "molecule": "CC[C@]1(O)C[C@@H]2CN(CCc3c([nH]c4ccccc34)[C@@](C(=O)OC)(c3cc4c(cc3OC)N(C)[C@H]3[C@@](O)(C(=O)OC)[C@H](OC(C)=O)[C@]5(CC)C=CCN6CC[C@]43[C@@H]65)C2)C1 [Vinblastine sulfate, vinblastine sulfate, reference compound]",
    "class-label": "y"
  }
]

Enquiry: Strictly below 90%: is that where viability at 0.2188 µM of Cc1cnc(C(=O)N[C@H]2CCCCC/C=C\[C@@H]3C[C@@]3(C(=O)NS(=O)(=O)C3CC3)NC(=O)[C@@H]3C[C@@H](Oc4nc5ccccc5c5ccccc45)CN3C2=O)cn1 [Paritaprevir, paritaprevir, reference compound] sits?
Return: y

Enquiry: Can you handle C[C@@H]1O[C@@H](O[C@H]2C[C@@H](O)[C@]3(CO)[C@H]4[C@H](O)C[C@]5(C)[C@@H](C6=CC(=O)OC6)CC[C@]5(O)[C@@H]4CC[C@]3(O)C2)[C@H](O)[C@H](O)[C@H]1O [Ouabain, ouabain, reference compound] next?
Return: y

Enquiry: Okay, and O=c1c(O)c(-c2ccc(O)cc2)oc2c(O)c(O)cc(O)c12 ?
Return: y

Enquiry: Please answer likewise for CO[C@H]1C[C@H](O[C@H]2CC[C@@]3(C)[C@H](CC[C@@H]4[C@@H]3CC[C@]3(C)[C@@H](C5=CC(=O)OC5)[C@@H](OC(C)=O)C[C@]43O)C2)O[C@@H](C)[C@@H]1O
Return: y

----------
System: non-senescent control IMR90 ER:RAS cells
Assay: Nuclei count (Hoechst, high content imaging) senolytic assay, OIS model, non-senescent control cells
Format: cell-based, human
Conditions: Homo sapiens, IMR-90, Control; log (dose) [M] -8; read-out: % Cell Survival
Measured viability at 0.01 µM, listed per entry for reference.
Put your answer as a value accompanied by its unit after it.

[
  {
    "compound": "Cc1cnc(C(=O)N[C@H]2CCCCC/C=C\\[C@@H]3C[C@@]3(C(=O)NS(=O)(=O)C3CC3)NC(=O)[C@@H]3C[C@@H](Oc4nc5ccccc5c5ccccc45)CN3C2=O)cn1 [Paritaprevir, paritaprevir, reference compound]",
    "system": "non-senescent control IMR90 ER:RAS cells",
    "viability at 0.01 µM": "101%"
  }
]

For the next question, use this compound.
Enquiry: For COC[C@H]1C[C@@H](c2nc(-c3ccc4c(c3)COc3cc5c(ccc6nc([C@@H]7CC[C@H](C)N7C(=O)[C@@H](NC(=O)OC)C(C)C)[nH]c65)cc3-4)c[nH]2)N(C(=O)[C@H](NC(=O)OC)c2ccccc2)C1 [Velpatasvir, velpatasvir, reference compound] , what is its reported viability at 0.01 µM?
Return: 97.1%

----------
System: senescent A549 cells (etoposide-induced)
Test: Nuclei count senolytic assay, therapy-induced senescence (TIS) model, senescent cells
Assay type: cell-based, human
Conditions: Homo sapiens, A549; log (dose) [M] -6.33; Senescent cells; mean; read-out: Mean % Cell Survival
Procedure: We performed a second validation of the effectiveness of our machine learning models using a different stressor. We focused on therapy-induced senescence (TIS, Supplementary Fig. 6a), where human epithelial cancerous cells (A549) were induced to become senescent by addition of etoposide. Cells were treated with 100 μM etoposide for 48 h, followed by another three days of exposure to media in standard conditions. We performed experimental validation of the compounds with z-score > 8 (Fig. 2e). […]
reported-endpoint: viability at 0.468 µM (%)
Provide the reading as a plain figure in %.

Below, each entry is followed by its recorded viability at 0.468 µM result.
[
  {
    "compound": "O=c1c(O)c(-c2ccc(O)cc2O)oc2cc(O)cc(O)c12 [Morin, morin]",
    "viability at 0.468 µM / %": 88.2
  },
  {
    "compound": "CO[C@H]1C[C@@H]2CC[C@@H](C)[C@@](O)(O2)C(=O)C(=O)N2CCCC[C@H]2C(=O)O[C@H]([C@H](C)C[C@@H]2CC[C@@H](O)[C@H](OC)C2)CC(=O)[C@H](C)/C=C(\\C)[C@@H](O)[C@@H](OC)C(=O)[C@H](C)C[C@H](C)/C=C/C=C/C=C/1C [Rapamycin, rapamycin, reference compound]",
    "viability at 0.468 µM / %": 246
  },
  {
    "compound": "CO[C@H]1C[C@@H]2CC[C@@H](C)[C@@](O)(O2)C(=O)C(=O)N2CCCC[C@H]2C(=O)O[C@H]([C@H](C)C[C@@H]2CC[C@@H](OCCO)[C@H](OC)C2)CC(=O)[C@H](C)/C=C(\\C)[C@@H](O)[C@@H](OC)C(=O)[C@H](C)C[C@H](C)/C=C/C=C/C=C/1C [Everolimus, everolimus, reference compound]",
    "viability at 0.468 µM / %": 72.1
  },
  {
    "compound": "O=c1cc(-c2ccc(O)cc2)oc2cc(O)c(O)c(O)c12 [Scutellarein, scutellarein]",
    "viability at 0.468 µM / %": 106
  },
  {
    "compound": "Cc1cc2c(C(C)C)c(O)c(O)c(C=O)c2c(O)c1-c1c(C)cc2c(C(C)C)c(O)c(O)c(C=O)c2c1O [Gossypol, gossypol]",
    "viability at 0.468 µM / %": 74.4
  },
  {
    "compound": "COc1cc(O)c2c(=O)cc(-c3ccc(OC)c(-c4c(O)cc(O)c5c(=O)cc(-c6ccc(O)cc6)oc45)c3)oc2c1 [Ginkgetin, ginkgetin]",
    "viability at 0.468 µM / %": 104
  }
]

Now examine the next entry.
Enquiry: Recorded viability at 0.468 µM of Cc1c(-c2c(F)cc(C(N)=O)c3[nH]c4c(c23)CC[C@H](C(C)(C)O)C4)cccc1-n1c(=O)c2cccc(F)c2n(C)c1=O [BMS 986142] , please.
Return: 94.2

----------
Each item that follows carries a reported viability at 1 µM.
Test system: non-senescent control IMR90 ER:RAS cells
Experiment: Nuclei count (Hoechst, high content imaging) senolytic assay, OIS model, non-senescent control cells
Format: cell-based, human
Conditions: Homo sapiens, IMR-90, 72 h, Control, log (dose) [M] -6, 72 h, mean n=3 (Fig 3C); read-out: Mean % Cell Survival
Description: To test for senolytic activity, we compared the effect of each compound on the total cell number (automated high content image-based analysis of total number of nuclei per well) in non-senescent and senescent IMR90 ER:RAS cultures treated with the top hits from the computational screen (Figs. 2e and 3a–d and Supplementary Fig. 4a–c). The drop in cell number compared to untreated controls is indicated by the nuclei count and reflects cell death[13],[15]. […]
Kindly provide the numeric value in % only, without the unit symbol.

Some solved cases for reference:
[
  {
    "molecule": "Cc1cc2c(C(C)C)c(O)c(O)c(C=O)c2c(O)c1-c1c(C)cc2c(C(C)C)c(O)c(O)c(C=O)c2c1O [Gossypol, gossypol]",
    "viability at 1 µM [%]": 120
  },
  {
    "molecule": "COC[C@H]1C[C@@H](c2nc(-c3ccc4c(c3)COc3cc5c(ccc6nc([C@@H]7CC[C@H](C)N7C(=O)[C@@H](NC(=O)OC)C(C)C)[nH]c65)cc3-4)c[nH]2)N(C(=O)[C@H](NC(=O)OC)c2ccccc2)C1 [Velpatasvir, velpatasvir, reference compound]",
    "viability at 1 µM [%]": 115
  },
  {
    "molecule": "C[C@@H]1O[C@@H](O[C@H]2C[C@@H](O)[C@]3(CO)[C@H]4[C@H](O)C[C@]5(C)[C@@H](C6=CC(=O)OC6)CC[C@]5(O)[C@@H]4CC[C@]3(O)C2)[C@H](O)[C@H](O)[C@H]1O [Ouabain, ouabain, reference compound]",
    "viability at 1 µM [%]": 27
  },
  {
    "molecule": "CO[C@H]1C[C@@H]2CC[C@@H](C)[C@@](O)(O2)C(=O)C(=O)N2CCCC[C@H]2C(=O)O[C@H]([C@H](C)C[C@@H]2CC[C@@H](OP(C)(C)=O)[C@H](OC)C2)CC(=O)[C@H](C)/C=C(\\C)[C@@H](O)[C@@H](OC)C(=O)[C@H](C)C[C@H](C)/C=C/C=C/C=C/1C [Ridaforolimus, ridaforolimus, reference compound]",
    "viability at 1 µM [%]": 77.9
  }
]

Please find the next molecule below.
Enquiry: Requested field: viability at 1 µM. Item: O=c1oc2c(O)c(O)cc3c(=O)oc4c(O)c(O)cc1c4c23 [Ellagic acid, ellagic acid]
Return: 105
